List of pKd values.
target: T1, human-CD40-monomer protein (human, UniProt P25942 21-193, limits assumed); assay: SPR, Ab captured on protein A, 1 uM hCD40 monomer, single concentration, apparent value
T1 construct: Soluble monomer generated in house, used as SPR analyte; also called hCD40; hCD40-monomer
T1 sequence (P25942 21-193 limits assumed): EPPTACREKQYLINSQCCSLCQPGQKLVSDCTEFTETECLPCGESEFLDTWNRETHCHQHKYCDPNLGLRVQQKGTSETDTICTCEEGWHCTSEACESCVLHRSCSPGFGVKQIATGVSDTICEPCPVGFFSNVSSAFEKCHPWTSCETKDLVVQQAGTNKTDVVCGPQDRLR
# pKd is unitless: minus log10 of the molar concentration; print number only

The binder listed as ADX_Y1262.ZZ0-1 (antibody, V domains shown, Mouse anti-human-CD40 antibody) VH: QVQLQQSGAELAKPGSSVKMSCKASGYAFTSYWMHWVKQRPGQGLEWIGYINPTTGYSAYNQKFKDKATLTADKSSSTAYMQLNSLTSEDSAVYYCARWDPRPFAYWGQGTLVTVSA VL: DIVMTQSHKFMSTSVGDRVSITCKASQDVSTAVAWYQQKPGQSPKLLIYSASYRYTGVPDRFTGSGYGTDFTFTISSVQAEDLAVYYCQQHYSTPWTFGGGTKLEIK shows pKd equal to 8.18

Entry ADX_Y1258.ZZ0-1 (antibody, V domains shown, Mouse anti-human-CD40 antibody) VH: QVQLQQSGAELAKPGSSVKMSCKASGYAFTSYWMHWIKQRPGQGLEWIGFINPTTGYSEYNQKFKDKATLTADKSSSTAYMQLNSLTSEDSAVYFCARWGLPPFAYWGQGTLVTVSA VL: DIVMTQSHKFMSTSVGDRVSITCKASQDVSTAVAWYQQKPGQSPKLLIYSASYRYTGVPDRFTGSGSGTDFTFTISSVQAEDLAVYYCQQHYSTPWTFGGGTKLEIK , pKd reported as 8.10

Reported pKd ( ADX_Y1072.ZZ0-1 (antibody, V domains shown, Mouse anti-human-CD40 antibody) VH: QVQFQQSGAELARPGASVKLSCKASGYTFTSYWMQWVKQRPGQGLEWIGTIYPGDGDSRYNQKFKGKALLTADKSSSIAYMQLNSLASEDSAVYFCARFSLYDGYPYYFDYWGQGTTLTVSS VL: DVVMTQTPLSLPVSLGDQASISCRSSQSLVHRNGNTYLHWYLQKPGQSPKLLIYRVSNRFSGVPDRFSGSGSGTDFTLKISRVEAEDLGIYFCSQSTHFPYTFGGGTKLEIK ) = 6.92
